Entry source: the supplement of paper PMC4466140

# MEASUREMENT_TARGET: CaBbc1
# ASSAY_COMMENT: SPOT peptide array binding signal intensity (averaged, normalized) (arbitrary units (background-subtracted, floor 0; scale differs between SH3 domains)); higher = stronger binding of the SH3 domain to the peptide
MEASUREMENT_NAME: SPOT peptide array binding signal intensity

[[record]]
binder = "DTFLPPPPPPPSNFE"
relational_operator = "≤"
value_measured = 0

[[record]]
binder = "KTITLEVESSDTIDN"
relational_operator = "≤"
value_measured = 0

[[record]]
binder = "PPPPPPPPPPPLPQS"
relational_operator = "≤"
value_measured = 0

[[record]]
binder = "NFLRLLIGLPSQNEL"
relational_operator = "≤"
value_measured = 0

[[record]]
binder = "PALPSLPPPPLLNVD"
relational_operator = "≤"
value_measured = 0

[[record]]
binder = "ATNVPVAPPPPPASL"
relational_operator = "≤"
value_measured = 0

[[record]]
binder = "TKIRRRPQQPLTDFT"
relational_operator = "="
value_measured = 518

[[record]]
binder = "PKMLPIPSKPTLFDL"
relational_operator = "="
value_measured = 38.8

[[record]]
binder = "VTHRLRISIPGITGR"
relational_operator = "="
value_measured = 234

[[record]]
binder = "TPRLSLPRLPNKHHW"
relational_operator = "="
value_measured = 30.2

[[record]]
binder = "VPPVPLPFGIPPFPM"
relational_operator = "="
value_measured = 2.5

[[record]]
binder = "DLPLPDLPPEPPTEL"
relational_operator = "≤"
value_measured = 0

[[record]]
binder = "SHRLWLYAAPKRPKT"
relational_operator = "="
value_measured = 100

